pIC50: −log10 of the molar value.
This section lists pIC50 readings for BCL-2 (binding to BAK peptide) (Homo sapiens).

{"columns": ["smiles_repr", "pIC50"],
 "data": [
  ["CCCCN(CCCC)C(=O)c1cc(C)n(-c2ccc(NC(=O)CCc3ccccc3)cc2C(=O)N2Cc3ccccc3C[C@H]2CO)n1", "6.54 to 6.72"]
]}

Looking up "CCCCN(CCCC)C(=O)c1cc(C)n(-c2ccc(NC(=O)Cc3cccnc3)cc2C(=O)N2Cc3ccccc3C[C@H]2CO)n1" , I see its pIC50 listed as 6.81 to 6.86

The compound identified as "CCCCN(CCCC)C(=O)c1cc(C)n(-c2ccc(NC(=O)Cc3cccc(OC)c3)cc2C(=O)N2Cc3ccccc3C[C@H]2CO)n1" registered its pIC50 at 7.13 to 7.17

The origin of these recorded values is patent US20140357633A1.
